- System: HeLa cells
- assay protocol: Compound screen by flow cytometry: HeLa cell count as surrogate readout of cell viability (z-scoreHeLa); also: test concentration or dose not given here
- Assay type: cell-based, human
- condition info: PKIS compound screen raw data, HeLa cell count, replicate 3
Cut-off 40000 on cell count rep 3, inclusive. At or above means rule met; below means rule not met.

compound	tested target	label class
O=C1Nc2ccc(C(=O)c3ccco3)cc2C1=Cc1cc(Cl)c(O)c(Cl)c1 [GW406108X]	HeLa cells	rule met
CNc1nc(-c2ccc3c(N)n[nH]c3c2)cc(N2C[C@@H](C(=O)NC3CCCCC3)OC[C@H]2C)n1 [GSK2375584A]	HeLa cells	rule not met
COc1cc(Nc2nccc(N3CCC(NC(=O)c4cc5ccccc5s4)C3)n2)cc(OC)c1OC (centres unmarked) [GSK1379760A]	HeLa cells	rule met
Cc1cc(-c2ccc3c(c2)CC[C@@H](N[C@@H](C)c2ccccc2)C3)cnc1N [GW412617A]	HeLa cells	rule met
Cc1cc(N2Cc3ccccc3C2)nc(Nc2ccc(S(=O)(=O)N3CCOCC3)cc2)n1 [GSK1669917A]	HeLa cells	rule not met
CC(C)c1nc(-c2cccc(NS(=O)(=O)c3ccccc3)c2)c(-c2ccnc(Nc3ccc4c(c3)CN(C)CC4)n2)s1 [GSK1649598A]	HeLa cells	rule not met
CCn1c(-c2nonc2N)nc2c(C#CC(C)(C)O)nc(OC[C@@H](N)c3ccccc3)cc21 [GSK938890A]	HeLa cells	rule met
